Assay: Total body clearance in Sprague-Dawley rat at 1 mg/kg, iv
Type: ADME, organism-based
Conditions: in vivo
reportedEndpoint: clearance
Answers without a unit are incomplete; give the number and then its unit.

Ask: Requested field: clearance. Item: CC(C)(C)[C@H](NC(=O)[C@H](CCONC(=N)N)NC(=O)Cc1ccc(CNC(=N)N)cc1)C(=O)N[C@@H](CCONC(=N)N)C(=O)NCc1ccc(C(=N)N)cc1
Reply: 7.37 mL/min/kg

* * *

Target: Prothrombin (Bos taurus)
pKi: −log10 of the molar value.
reportedEndpoint: pKi

Ask: Requested field: pKi. Item: CC(C)(C)[C@H](NC(=O)[C@H](CCCNC(=N)N)NC(=O)Cc1ccc(CNC(=N)N)cc1)C(=O)N[C@@H](CCCNC(=N)N)C(=O)NCc1ccc(C(=N)N)cc1
Reply: < 5.52

* * *

Target: UniProt:P00742
Sequence (P00742 41-179 limits assumed): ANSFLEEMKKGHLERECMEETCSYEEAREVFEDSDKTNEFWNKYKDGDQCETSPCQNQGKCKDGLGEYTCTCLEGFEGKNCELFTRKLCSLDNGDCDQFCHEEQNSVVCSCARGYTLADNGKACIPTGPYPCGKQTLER
Sequence (P00742 235-488 limits assumed): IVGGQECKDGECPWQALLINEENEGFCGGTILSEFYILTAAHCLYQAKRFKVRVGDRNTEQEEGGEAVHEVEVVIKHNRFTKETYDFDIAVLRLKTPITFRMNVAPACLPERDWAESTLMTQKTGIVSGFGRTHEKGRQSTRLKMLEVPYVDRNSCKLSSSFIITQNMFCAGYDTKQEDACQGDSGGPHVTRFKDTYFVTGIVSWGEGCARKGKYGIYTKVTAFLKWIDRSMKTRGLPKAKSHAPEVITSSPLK
pKi: −log10 of the molar value.
reportedEndpoint: pKi

Ask: Write down the reported pKi of CC(C)(C)[C@H](NC(=O)[C@H](CCCNC(=N)N)NC(=O)Cc1ccc(CNC(=N)N)cc1)C(=O)N[C@@H](CCCNC(=N)N)C(=O)NCc1ccc(C(=N)N)cc1 , test system: UniProt:P00742.
Reply: < 5.52

* * *

Assay: Total body clearance in Sprague-Dawley rat at 2.5 mg/kg, ip
Assay type: ADME, organism-based
Details: in vivo
reportedEndpoint: CL/F
Answers without a unit are incomplete; give the number and then its unit.

Ask: Requested field: CL/F. Item: CC(C)(C)[C@H](NC(=O)[C@H](CCONC(=N)N)NC(=O)Cc1ccc(CNC(=N)N)cc1)C(=O)N[C@@H](CCONC(=N)N)C(=O)NCc1ccc(C(=N)N)cc1
Reply: 4.55 mL/min/kg

* * *

Experiment: Plasma concentration in Sprague-Dawley rat at 2.5 mg/kg, ip measured after 3 hrs
Assay type: ADME, organism-based
reportedEndpoint: concentration at 3 h

Ask: Requested field: concentration at 3 h. Item: CC(C)(C)[C@H](NC(=O)[C@H](CCONC(=N)N)NC(=O)Cc1ccc(CNC(=N)N)cc1)C(=O)N[C@@H](CCONC(=N)N)C(=O)NCc1ccc(C(=N)N)cc1
Reply: > 1000 ng/mL
